Entry source: the RNAGym collection of RNA variant scans (doi:10.1021/acssynbio.7b00057)

B1: Pistol ribozyme (parent)
chain: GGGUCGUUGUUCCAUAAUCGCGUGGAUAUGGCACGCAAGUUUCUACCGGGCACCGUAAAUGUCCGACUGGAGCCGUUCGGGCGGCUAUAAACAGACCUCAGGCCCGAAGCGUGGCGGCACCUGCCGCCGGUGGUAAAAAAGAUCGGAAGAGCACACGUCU

Variants of: B1
test_name: aptazyme ON/OFF ratio, guanine; higher = stronger switching; co-transcriptional cleavage with and without guanine
readout_name: aptazyme ON/OFF ratio
In your answer, state the number alone without any accompanying words.

Worked cases, aptazyme ON/OFF ratio given:
Q. Please look at this variant and report its aptazyme ON/OFF ratio: U8G G9A U10G U11C C13G
A. 1.05

Q. Give the reported value of aptazyme ON/OFF ratio for this record: U7A U8C G9U U10G U11C C12U C13U
A. 1.09

Q. Please report aptazyme ON/OFF ratio for the following variant: U7C U8A U10C U11G C12G C13A
A. 1.15

Q. Please look at this variant and report its aptazyme ON/OFF ratio: U7G U8G G9U U10G U11G C12U
A. 1.18

Q. Given the variant U7G U8G G9A U11A C12G C13U , write its reported aptazyme ON/OFF ratio.
A. 1.15

***
Q. Hello, please tell me recorded aptazyme ON/OFF ratio for this one: U7G U8G U11A C12A C13G
A. 1.02

Q. # return recorded aptazyme ON/OFF ratio for entry G9C U10C U11A C12A C13U
A. 1.11

Q. Give the measured aptazyme ON/OFF ratio for U7C U8A G9A U11C C13A
A. 1.04

Q. Retrieve aptazyme ON/OFF ratio measured for U8A G9U U10C U11G C12A C13U and print it.
A. 1.12

Q. Determine its reported aptazyme ON/OFF ratio: U7G U8G U10A C13G
A. 1.29
